- System: L1210
- Assay details: Antitumor activity against mouse L1210 cells allografted in BDF1 mouse assessed as increase in life span at 1000 mg/kg, ip administered as single dose 24 hrs post-implantation measured up to 30 days relative to control
- Type: functional
- Experimental setup: route intraperitoneal
Below is a list of entries, each paired with its recorded ILS at 1000 mg/kg value.

[[record]]
compound = "CC(=O)O[C@H]1[C@@H]2Oc3nc(=N)ccn3[C@@H]2O[C@@H]1CO.Cl"
observed_measurement = "87%"

[[record]]
compound = "CCCCCCCCCCCCCCCCCCCCCC(=O)O[C@H]1[C@@H]2Oc3nc(=N)ccn3[C@@H]2O[C@@H]1CO.Cl"
observed_measurement = "> 240%"

[[record]]
compound = "Cl.N=c1ccn2c(n1)O[C@H]1[C@H](O)[C@@H](CO)O[C@H]12 [ANCITABINE HYDROCHLORIDE]"
observed_measurement = "89%"

[[record]]
compound = "CCCCCCCCCCCCCC(=O)O[C@H]1[C@@H]2Oc3nc(=N)ccn3[C@@H]2O[C@@H]1CO.Cl"
observed_measurement = "> 280%"

[[record]]
compound = "CCCCCCCCCCCCCCCCCCCC(=O)O[C@H]1[C@@H]2Oc3nc(=N)ccn3[C@@H]2O[C@@H]1CO.Cl"
observed_measurement = "> 266%"


Proceeding to the next compound to report its ILS at 1000 mg/kg.
Param readout = ILS at 1000 mg/kg; param system = L1210; param query = CCCCCCCCCCCCCCCCCC(=O)O[C@H]1[C@@H]2Oc3nc(=N)ccn3[C@@H]2O[C@@H]1CO.Cl ; response: value > 257%

====

- System: Herpesviridae sp.
- Assay details: Antiviral activity against Herpes simplex virus HF infected in African green monkey BGM cells after 6 days by plaque reduction assay
- Assay type: functional
- Experimental setup: 144 h, read-out: ED50 (the source's name)
A collection of compounds and their measured pEC50
Keep in mind that pEC50 stands for -log10 of concentration in molar terms.

[[record]]
compound = "CCC(=O)O[C@H]1[C@@H]2Oc3nc(=N)ccn3[C@@H]2O[C@@H]1CO.Cl"
observed_measurement = 5.59

[[record]]
compound = "Cl.N=c1ccn2c(n1)O[C@H]1[C@H](OC(=O)c3ccccc3)[C@@H](CO)O[C@H]12"
observed_measurement = 5.09

[[record]]
compound = "CCCCCCCCCCCCCCCC(=O)O[C@H]1[C@@H]2Oc3nc(=N)ccn3[C@@H]2O[C@@H]1CO.Cl"
observed_measurement = 5.26

[[record]]
compound = "CCCCCCC/C=C/C(=O)O[C@H]1[C@@H]2Oc3nc(=N)ccn3[C@@H]2O[C@@H]1CO.Cl"
observed_measurement = 6.68

[[record]]
compound = "CCCCCCCC/C=C\\CCCCCCCC(=O)O[C@H]1[C@@H]2Oc3nc(=N)ccn3[C@@H]2O[C@@H]1CO.Cl"
observed_measurement = 5.92

[[record]]
compound = "CCCCCCCC(=O)O[C@H]1[C@@H]2Oc3nc(=N)ccn3[C@@H]2O[C@@H]1CO.Cl"
observed_measurement = 6.14

[[record]]
compound = "CCCCCCCCCCCCCCCCCC(=O)O[C@H]1[C@@H]2Oc3nc(=N)ccn3[C@@H]2O[C@@H]1CO.Cl"
observed_measurement = 5.26

[[record]]
compound = "CCCCCCCCCCCCCC(=O)O[C@H]1[C@@H]2Oc3nc(=N)ccn3[C@@H]2O[C@@H]1CO.Cl"
observed_measurement = 5.87


Entry under review: Cl.N=c1ccn2c(n1)O[C@H]1[C@H](OC(=O)Cc3ccccc3)[C@@H](CO)O[C@H]12 . Reported pEC50? 6.25

Could you share which pEC50 value was measured for CCCCCCCCCCC(=O)O[C@H]1[C@@H]2Oc3nc(=N)ccn3[C@@H]2O[C@@H]1CO.Cl ? 6.34

Given the entry CCCCCCCCC(=O)O[C@H]1[C@@H]2Oc3nc(=N)ccn3[C@@H]2O[C@@H]1CO.Cl , report its measured pEC50. 6.40

====

- Assay details: Half life in human
- Assay type: ADME, organism-based
- Experimental setup: in vivo
Measured metric: half-life

Please report the recorded half-life for Nc1ccn([C@@H]2O[C@H](CO)[C@@H](O)[C@@H]2O)c(=O)n1 . 12 min

====

pEC50: recorded values
- Test system: Herpesviridae sp.
- Assay details: Antiviral activity against Herpes simplex virus HF infected in African green monkey BGM cells after 6 days by plaque reduction assay
- Assay type: functional
- Experimental setup: 144 h, read-out: ED50 (the source's name)
Bear in mind: pEC50 is minus log10 of a mol/L concentration; give just that figure.

[[record]]
molecular_string = "CC(C)C(=O)O[C@H]1[C@@H]2Oc3nc(=N)ccn3[C@@H]2O[C@@H]1CO.Cl"
measurement_target = "Herpesviridae sp."
observed_measurement = 5.06


Request the reported pEC50 associated with CCCCCC(=O)O[C@H]1[C@@H]2Oc3nc(=N)ccn3[C@@H]2O[C@@H]1CO.Cl 5.81

Entry CCCCCCCC/C=C/CCCCCCCC(=O)O[C@H]1[C@@H]2Oc3nc(=N)ccn3[C@@H]2O[C@@H]1CO.Cl has what pEC50? 5.72

I am curious: what pEC50 value has been reported for CC(=O)O[C@H]1[C@@H]2Oc3nc(=N)ccn3[C@@H]2O[C@@H]1CO.Cl ? 5.65

====

- Test system: Herpesviridae sp.
- Assay details: Antiviral activity against Herpes simplex virus HF infected in African green monkey BGM cells after 6 days by plaque reduction assay
- Format: functional
- Experimental setup: 144 h, read-out: ED50 (the source's name)
Listing of recorded pEC50 by entry.
As a rule, pEC50 stands for the negative log10 of the concentration, concentration in M.

Below: 3 compounds and their reported pEC50.
[[record]]
compound = "C=CCCCCCCCCC(=O)O[C@H]1[C@@H]2Oc3nc(=N)ccn3[C@@H]2O[C@@H]1CO.Cl"
measured_metric = "pEC50"
observed_measurement = 5.92

[[record]]
compound = "CCCCCCCCCC(=O)O[C@H]1[C@@H]2Oc3nc(=N)ccn3[C@@H]2O[C@@H]1CO.Cl"
measured_metric = "pEC50"
observed_measurement = 5.98

[[record]]
compound = "Cl.N=c1ccn2c(n1)O[C@H]1[C@H](O)[C@@H](CO)O[C@H]12 [ANCITABINE HYDROCHLORIDE]"
measured_metric = "pEC50"
observed_measurement = 6.15


State the recorded pEC50 for this entry: CCCCCCCCCCCC(=O)O[C@H]1[C@@H]2Oc3nc(=N)ccn3[C@@H]2O[C@@H]1CO.Cl 6.19

Look at this compound and give its reported pEC50. CCCC(=O)O[C@H]1[C@@H]2Oc3nc(=N)ccn3[C@@H]2O[C@@H]1CO.Cl 5.69

====

- System: Herpesviridae sp.
- Assay details: Antiviral activity against Herpes simplex virus HF infected in African green monkey BGM cells after 6 days by plaque reduction assay
- Type: functional
- Experimental setup: 144 h, read-out: ED50 (the source's name)
Collected EC50 values appear next to each entry.

[[record]]
molecular_string = "CCCCCCCC/C=C\\CCCCCCCCCCCC(=O)O[C@H]1[C@@H]2Oc3nc(=N)ccn3[C@@H]2O[C@@H]1CO.Cl"
observed_measurement = "> 30 µM"

[[record]]
molecular_string = "CCCCCCCCCCCCCCCCCCCC(=O)O[C@H]1[C@@H]2Oc3nc(=N)ccn3[C@@H]2O[C@@H]1CO.Cl"
observed_measurement = "> 30 µM"


Query compound follows.
Fill in the blank: the reported EC50 of CCCCCCCCCCCCCCCCCCCCCC(=O)O[C@H]1[C@@H]2Oc3nc(=N)ccn3[C@@H]2O[C@@H]1CO.Cl is ____. > 30 µM
